Field: concentration at 10 min. Provide a value for each of the compounds that follow.
test: Concentration of BG or BG-d1 in blood samples after iv injection (HPLC); format: in vivo, male Wistar rats; conditions: serum; rat, iv, 10 minutes; read-out: Amount of unmetabolized drug in blood samples
Please provide the amount together with its unit, number first.

Would you mind telling me what concentration at 10 min value was observed for OC1O[C@@H]2COC(c3ccccc3)O[C@H]2[C@H](O)[C@H]1O (some centres unmarked) ?
96 µM

Would you mind telling me what concentration at 10 min value was observed for [2H]C1(c2ccccc2)OC[C@H]2OC(O)[C@H](O)[C@@H](O)[C@@H]2O1 (stereo partly drawn) [BG-d1, 4,6-O-deuterobenzylidene-d1 -D-glucose] ?
140 µM
